- system.under.test: EphA8(h) (Homo sapiens, UniProt P29322)
- Sequence (P29322 28-1005): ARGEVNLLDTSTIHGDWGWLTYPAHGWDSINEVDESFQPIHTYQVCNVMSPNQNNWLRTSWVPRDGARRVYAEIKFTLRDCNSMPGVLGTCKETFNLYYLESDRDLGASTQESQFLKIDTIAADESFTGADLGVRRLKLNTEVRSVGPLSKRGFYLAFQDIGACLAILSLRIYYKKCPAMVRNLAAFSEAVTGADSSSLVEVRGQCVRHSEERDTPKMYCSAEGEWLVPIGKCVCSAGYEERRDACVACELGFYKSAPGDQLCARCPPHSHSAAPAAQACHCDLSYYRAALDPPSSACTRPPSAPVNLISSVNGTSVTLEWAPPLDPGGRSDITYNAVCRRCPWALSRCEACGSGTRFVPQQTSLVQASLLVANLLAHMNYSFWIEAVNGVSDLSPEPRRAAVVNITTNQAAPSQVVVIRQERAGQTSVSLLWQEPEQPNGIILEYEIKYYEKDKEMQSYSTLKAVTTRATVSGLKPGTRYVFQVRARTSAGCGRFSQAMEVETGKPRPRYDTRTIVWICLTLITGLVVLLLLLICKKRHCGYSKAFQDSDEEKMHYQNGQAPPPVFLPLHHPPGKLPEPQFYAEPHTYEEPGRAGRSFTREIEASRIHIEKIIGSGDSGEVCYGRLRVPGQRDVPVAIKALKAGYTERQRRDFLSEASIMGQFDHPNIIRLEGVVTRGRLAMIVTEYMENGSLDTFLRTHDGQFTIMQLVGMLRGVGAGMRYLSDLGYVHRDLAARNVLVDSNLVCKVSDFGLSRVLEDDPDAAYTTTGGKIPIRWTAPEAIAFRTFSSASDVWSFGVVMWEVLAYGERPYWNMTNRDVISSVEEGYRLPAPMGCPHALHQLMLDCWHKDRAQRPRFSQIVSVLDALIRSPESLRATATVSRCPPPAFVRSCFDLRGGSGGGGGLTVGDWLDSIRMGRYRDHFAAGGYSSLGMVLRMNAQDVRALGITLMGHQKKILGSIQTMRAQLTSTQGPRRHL
- method.description: Kinase Profiling Assay
- Assay type: biochemical
- protocol.conditions: 100 μM
property.name: % activity (%)
The answer is to be given in %; state only the numeric part.

{"monomer.sequence": "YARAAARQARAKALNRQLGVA [MMI-0200]", "property.name": "% activity", "measurement": 133}
{"monomer.sequence": "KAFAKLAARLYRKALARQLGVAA [MMI-0400]", "property.name": "% activity", "measurement": 146}
{"monomer.sequence": "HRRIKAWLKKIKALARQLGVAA [MMI-0500]", "property.name": "% activity", "measurement": 337}

Look at this sequence and give its reported % activity. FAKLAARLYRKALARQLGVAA [MMI-0300]
93
